# Experiment Notes: Kinetic solubility of the compound at pH 6.5
# Format: physicochemical
# Run Conditions: buffer, read-out: Kinetic_solubility
Recorded Metric: solubility kinetic (µg/mL)
Lab book: enter the figure in µg/mL, no units written.

Form field: reported solubility kinetic of C[C@H]1CC(=O)Nc2cc(C(=O)NCCC3CC3)ccc2N1C(=O)N1CCC(NCC(F)(F)F)CC1 312

Moving on to the next molecule.
Give the measured solubility kinetic of C[C@H]1CC(=O)Nc2cc(C(=O)NCCC3CC3)ccc2N1C(=O)N(C)C1CCN(CC(F)(F)F)CC1 . 345

---

Below is a list of entries, each paired with its recorded pIC50 value.
# Target Or System: Histone-lysine N-methyltransferase SMYD3 (Homo sapiens)
# Sequence (Q9H7B4 whole entry): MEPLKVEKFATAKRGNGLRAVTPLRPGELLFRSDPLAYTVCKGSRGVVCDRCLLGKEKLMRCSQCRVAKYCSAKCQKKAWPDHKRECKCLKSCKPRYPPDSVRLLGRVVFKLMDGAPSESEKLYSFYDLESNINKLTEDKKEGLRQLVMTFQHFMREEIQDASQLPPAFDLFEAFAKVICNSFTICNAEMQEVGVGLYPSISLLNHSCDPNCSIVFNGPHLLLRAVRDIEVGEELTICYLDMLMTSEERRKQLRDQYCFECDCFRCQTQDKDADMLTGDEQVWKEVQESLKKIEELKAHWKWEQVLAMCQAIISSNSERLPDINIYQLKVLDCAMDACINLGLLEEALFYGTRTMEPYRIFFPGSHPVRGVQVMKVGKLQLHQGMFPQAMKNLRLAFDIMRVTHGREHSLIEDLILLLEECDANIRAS
# Experiment Notes: Binding affinity to recombinant human SMYD3 expressed in Escherichia coli assessed as catalytic inhibition using DYDNPIFEKFGKGGTYPRRYHVSYHGK-Biotin as substrate by scintillation proximity assay
Please report pIC50 as the negative decimal logarithm of the molar concentration, giving only the number.

Please review the following examples before continuing.
I'd like to know its pIC50. The molecule in question is C[C@H]1CC(=O)Nc2cc(C(=O)NCCC3CC3)ccc2N1C(=O)N1CCC(NCC(F)(F)F)CC1 5.99

What value of pIC50 has been recorded for this entry: C[C@@H]1CC(=O)Nc2cc(C(=O)NCCC3CC3)ccc2N1C(=O)N1CC2CC2C1 (stereo partly drawn) 5.60

---
Consider the molecule shown here: C[C@H]1CC(=O)Nc2cc(C(=O)NCCC3CC3)ccc2N1C(=O)N1CCC(F)(F)C1 What is its recorded pIC50? 6.12
